target: SteC_(210-429) WT, minimal active kinase domain (Salmonella Typhimurium strain 14028s, UniProt D0ZIB5 210-429); test: BLI; conditions: both partners purified
Sequence (D0ZIB5 210-429): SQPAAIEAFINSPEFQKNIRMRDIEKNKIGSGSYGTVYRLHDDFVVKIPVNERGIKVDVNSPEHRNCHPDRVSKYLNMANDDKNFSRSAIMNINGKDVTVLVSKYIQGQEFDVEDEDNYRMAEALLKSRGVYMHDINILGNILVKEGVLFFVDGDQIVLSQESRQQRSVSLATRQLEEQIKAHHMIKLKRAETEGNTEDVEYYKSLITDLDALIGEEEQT
Ends that are not written are not given here. * marks the point of attachment. Biotin = O=C1N[C@H]2[C@H](CS[C@H]2CCCCC(=O)*)N1
property.name: Kd (µM)
Reply numerically in µM, unit not repeated.

response.value for Biotin-KGPPSSVPKSRHLTIKLTPAHSRK (peptide, UniProt O95466 190-213, looked up) [N-terminally biotinylated FMNL1 peptide (K190-K213)] (field: Kd) = 7.9

Reference source for all entries: paper PMC13395416
